# measuredTarget: Protein deacetylase HDAC6 (Homo sapiens)
# Sequence (whole entry): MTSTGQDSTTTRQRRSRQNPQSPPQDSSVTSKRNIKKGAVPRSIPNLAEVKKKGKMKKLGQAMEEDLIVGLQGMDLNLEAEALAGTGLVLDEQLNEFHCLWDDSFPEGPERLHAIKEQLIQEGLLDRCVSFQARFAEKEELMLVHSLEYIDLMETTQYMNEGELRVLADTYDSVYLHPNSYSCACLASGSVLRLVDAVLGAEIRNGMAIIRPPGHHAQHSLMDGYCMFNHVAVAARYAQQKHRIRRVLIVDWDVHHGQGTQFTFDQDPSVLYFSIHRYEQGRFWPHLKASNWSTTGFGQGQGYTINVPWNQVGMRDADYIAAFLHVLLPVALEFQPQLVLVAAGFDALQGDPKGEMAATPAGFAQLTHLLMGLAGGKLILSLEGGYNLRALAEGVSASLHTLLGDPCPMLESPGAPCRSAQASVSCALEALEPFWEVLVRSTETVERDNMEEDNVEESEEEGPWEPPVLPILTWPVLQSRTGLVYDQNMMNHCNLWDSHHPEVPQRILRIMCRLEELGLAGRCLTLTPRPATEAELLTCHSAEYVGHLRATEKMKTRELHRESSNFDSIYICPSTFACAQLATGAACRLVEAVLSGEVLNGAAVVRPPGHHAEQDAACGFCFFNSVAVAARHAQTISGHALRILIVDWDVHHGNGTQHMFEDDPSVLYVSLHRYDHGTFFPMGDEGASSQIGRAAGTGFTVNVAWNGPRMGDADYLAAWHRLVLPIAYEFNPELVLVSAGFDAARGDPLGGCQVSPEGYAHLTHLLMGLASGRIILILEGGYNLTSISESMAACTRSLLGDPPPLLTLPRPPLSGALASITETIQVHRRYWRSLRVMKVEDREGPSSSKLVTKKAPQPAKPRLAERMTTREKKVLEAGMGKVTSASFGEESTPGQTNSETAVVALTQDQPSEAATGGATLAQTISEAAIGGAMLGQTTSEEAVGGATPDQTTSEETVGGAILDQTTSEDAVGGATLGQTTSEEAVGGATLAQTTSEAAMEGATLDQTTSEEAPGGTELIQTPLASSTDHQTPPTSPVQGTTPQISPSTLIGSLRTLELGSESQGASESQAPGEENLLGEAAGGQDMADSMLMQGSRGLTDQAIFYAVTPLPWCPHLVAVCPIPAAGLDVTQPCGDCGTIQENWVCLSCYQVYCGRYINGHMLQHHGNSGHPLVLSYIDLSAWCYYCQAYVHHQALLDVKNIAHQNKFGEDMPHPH
# methodNotes: Inhibition of HDAC6 in human HeLa cells assessed as acetylation of tubulin after 24 hrs by immunofluorescence assay
# Assay type: cell-based
Activity calls are given as the source filed them. No cut-off for these calls is given here.
Outcome codes: yes (1) = active, no (0) = inactive

| compound | measuredTarget | assignedCategory |
| --- | --- | --- |
| CCCC(CCC)C(=O)NO [VALPROPYLHYDROXAMIC ACID] | Protein deacetylase HDAC6 (Homo sapiens) | yes (1) |
| CCCC(CCC)C(=O)O | Protein deacetylase HDAC6 (Homo sapiens) | no (0) |
| O=C(CCCc1ccccc1)NO [PHENYLBUTYRYLHYDROXAMIC ACID] | Protein deacetylase HDAC6 (Homo sapiens) | yes (1) |
| CCCC(=O)O | Protein deacetylase HDAC6 (Homo sapiens) | no (0) |
| CCCC(=O)NO [BUTYRYLHYDROXAMIC ACID] | Protein deacetylase HDAC6 (Homo sapiens) | yes (1) |
| O=C(O)CCCc1ccccc1 | Protein deacetylase HDAC6 (Homo sapiens) | no (0) |
